// reported log10(LC90) per item
- Tested on: Plutella xylostella
- Experiment: Insecticidal activity against second or third-instar Plutella xylostella (diamondback moth) in compound treated cabbage leaves at 26 degC
- Type: functional
Friendly reminder: values = log10 of LC90, unit ppm.

Answered cases to consult:
CN(C(=O)c1c(F)cccc1F)C(=O)N(C)c1cc(Cl)c(Oc2ncc(C(F)(F)F)cc2Cl)c(Cl)c1 ... -0.52
O=C(NC(=O)N(CC(F)(F)F)c1cc(Cl)c(Oc2ncc(C(F)(F)F)cc2Cl)c(Cl)c1)c1c(F)cccc1F ... 0.10
CN(C(=O)NC(=O)c1c(F)cccc1F)c1ccc(Cl)cc1 ... 1.10
O=C(NC(=O)c1c(F)cccc1F)Nc1cc(Cl)c(Oc2ncc(C(F)(F)F)cc2Cl)c(Cl)c1 [CHLORFLUAZURON] ... -1.40
CN(C(=O)NC(=O)c1c(F)cccc1F)c1cc(Cl)c(F)c(Cl)c1F ... -0.82

Q: Give Plutella xylostella log10(LC90) for the following compound: `O=C(NC(=O)N(Cc1ccccc1)c1cc(Cl)c(Oc2ncc(C(F)(F)F)cc2Cl)c(Cl)c1)c1c(F)cccc1F`
Ans: 0.70

Q: Give Plutella xylostella log10(LC90) for the following compound: `CN(C(=O)NC(=O)c1c(F)cccc1F)c1ccc(Oc2ccc(C(F)(F)F)cc2Cl)c(Cl)c1`
Ans: -1.40

Q: Give Plutella xylostella log10(LC90) for the following compound: `CN(C(=O)Nc1cc(Cl)c(Oc2ncc(C(F)(F)F)cc2Cl)c(Cl)c1)C(=O)c1c(F)cccc1F`
Ans: 1.00

Q: Give Plutella xylostella log10(LC90) for the following compound: `CC(C)N(C(=O)NC(=O)c1c(F)cccc1F)c1cc(Cl)c(Oc2ncc(C(F)(F)F)cc2Cl)c(Cl)c1`
Ans: -0.10

----------
- Experiment: Lipophilicity, log P of the compound by HPLC method
- Type: physicochemical
// reported logP per item

Q: Read off the recorded logP for `CN(C(=O)Nc1cc(Cl)c(Oc2ncc(C(F)(F)F)cc2Cl)c(Cl)c1)C(=O)c1c(F)cccc1F`
Ans: 7.26

Q: Read off the recorded logP for `CN(C(=O)c1c(F)cccc1F)C(=O)N(C)c1cc(Cl)c(Oc2ncc(C(F)(F)F)cc2Cl)c(Cl)c1`
Ans: 4.76

Q: Read off the recorded logP for `CN(C(=O)NC(=O)c1c(F)cccc1F)c1cc(Cl)c(Oc2ncc(C(F)(F)F)cc2Cl)c(Cl)c1`
Ans: 4.21

Q: Read off the recorded logP for O=C(NC(=O)c1c(F)cccc1F)Nc1cc(Cl)c(Oc2ncc(C(F)(F)F)cc2Cl)c(Cl)c1 [CHLORFLUAZURON]
Ans: 5.71

----------
// reported LC90 per item
- System: Plutella xylostella
- Experiment: Insecticidal activity against second or third-instar Plutella xylostella (diamondback moth) in compound treated cabbage leaves at 26 degC
- Assay type: functional
Form entry: value (ppm) — number only.

Answered cases to consult:
CN(C(=O)NC(=O)c1c(F)cccc1F)c1ccc(-c2ccc(Br)cc2)cc1 ... 0.04
O=C(NC(=O)c1c(F)cccc1F)Nc1ccc(Oc2ccc(C(F)(F)F)cc2Cl)cc1F ... 0.04
O=C(NC(=O)c1c(F)cccc1F)Nc1cc(Cl)c(OC(F)(F)C(F)F)c(Cl)c1 ... 0.04
CN(C(=O)NC(=O)c1c(F)cccc1F)c1ccc(Oc2ccc(C(F)(F)F)cc2Cl)c(F)c1 ... 0.04
O=C(NC(=O)c1c(F)cccc1F)Nc1ccc(Cl)cc1 ... 12.5

Q: Read off the recorded LC90 for `CN(C(=O)NC(=O)c1c(F)cccc1F)c1cc(Cl)c(Oc2ncc(C(F)(F)F)cc2Cl)c(Cl)c1`
Ans: 0.08

Q: Read off the recorded LC90 for `O=C(NC(=O)c1c(F)cccc1F)Nc1cc(Cl)c(F)c(Cl)c1F`
Ans: 0.02

Q: Read off the recorded LC90 for `CCN(C(=O)NC(=O)c1c(F)cccc1F)c1cc(Cl)c(Oc2ncc(C(F)(F)F)cc2Cl)c(Cl)c1`
Ans: 0.3
